assay: NOVARTIS: Inhibition Frequency Index (IFI) - the number of HTS assays where a compound showed > 50% inhibition/induction, expressed as a percentage of the number of assays in which the compound was tested.; type: functional
The full ranking holds about 5,400 compounds; the median of “IFI” is about 2, and the highest 2% start at about 22. Shown is part of a subset that was picked to be rich in the highest values.
// reported IFI for each item listed
Please give a number only; it is taken to be in %.

Solved cases (6 shown):
Cc1ccc(-c2c[n+](-c3ccccc3)c3n2CCCS3)cc1 ... 7.69
CC(C)(C)c1ccc(-c2c[n+](-c3ccccc3)c3n2CCCS3)cc1 ... 23.1
Clc1ccc(-c2c[n+](-c3ccccc3)c3n2CCS3)cc1 ... 0.725
CC(C)(C)OCCN(CC(O)CN(Cc1ccccc1)C(=O)NC(c1ccccc1)c1ccccc1)S(=O)(=O)c1ccccc1 (configuration not stated) ... 0.935
COc1ccc(-c2nc(CN3CCCCC3)ccc2O)cc1 ... 0
Cc1ccc(Nc2nc3c(N)nnc(N)c3nc2Nc2ccc(C)cc2)cc1 ... 2.98

Note: attention shifts to another entry.
## Task // lookup IFI for `CCCCOc1ccc(C(=O)Oc2ccccc2-c2nc3cc(C)ccn3c2NC(C)(C)CC(C)(C)C)cc1`
## Result 4.67

Provenance of the data: ChEMBL document CHEMBL1156829
